Values compiled from ChEMBL document CHEMBL5303573.

- testSummary: The drug is tested on Bacteroides dorei strain: DSM17855 for biotransformation. The drug concentrations were measured before and after a 12-h incubation by liquid-chromatography-coupled mass spectrometry (LC–MS)
- protocolConditions: phocaeicola dorei, 2 µM
metricName: Bacterial Biotransformation

Here is how some compounds turned out for Bacterial Biotransformation.
C[N+]12CCC(CC1)C(OC(=O)C(O)(c1ccccc1)c1ccccc1)C2.[Br-] (stereo not drawn) [CLIDINIUM BROMIDE]; Compound NOT metabolized
CN1CCc2cccc3c2[C@H]1Cc1ccc(O)c(O)c1-3; Compound NOT metabolized
CC12CC3CC(C)(C1)CC(N)(C3)C2 [MEMANTINE]; Compound NOT metabolized
COc1ccccc1OCCNCC(O)COc1cccc2[nH]c3ccccc3c12 (stereo not drawn); Compound metabolized

Request: Tell me the measured Bacterial Biotransformation of CN(CCOc1ccc(CC2SC(=O)NC2=O)cc1)c1ccccn1.O=C(O)/C=C\C(=O)O (stereo not drawn) [ROSIGLITAZONE MALEATE] , please.
Result: Compound NOT metabolized

Request: Tell me the measured Bacterial Biotransformation of COc1ccc2[nH]c([S+]([O-])Cc3ncc(C)c(OC)c3C)nc2n1 (stereo not drawn) , please.
Result: Compound metabolized

Request: Tell me the measured Bacterial Biotransformation of CS(=O)(=O)O.OC(CCN1CCCCC1)(c1ccccc1)c1ccccc1 [PRIDINOL METHANESULFONATE] , please.
Result: Compound NOT metabolized

---

- testSummary: The drug is tested on Bifidobacterium ruminantium strain: fecal isolate for biotransformation. The drug concentrations were measured before and after a 12-h incubation by liquid-chromatography-coupled mass spectrometry (LC–MS)
- protocolConditions: 2 µM
metricName: Bacterial Biotransformation

Here is how some molecules turned out for Bacterial Biotransformation.
CCc1cccc2c3c([nH]c12)C(CC)(CC(=O)O)OCC3 (stereo unspecified) [ETODOLAC]; Compound NOT metabolized
CC(C)(C#N)c1cc(Cn2cncn2)cc(C(C)(C)C#N)c1 [ANASTROZOLE]; Compound metabolized
c1ccc([C@H]2CN3CCSC3=N2)cc1 [LEVAMISOLE]; Compound NOT metabolized
CN1CCC(OC(c2ccccc2)c2ccccc2)CC1; Compound metabolized
CN(C)CCC=C1c2ccccc2C=Cc2ccccc21 [CYCLOBENZAPRINE]; Compound NOT metabolized

Request: Tell me the measured Bacterial Biotransformation of O=c1[nH]c2ccccc2n1CCCN1CCC(n2c(=O)[nH]c3cc(Cl)ccc32)CC1 [DOMPERIDONE] , please.
Result: Compound NOT metabolized

---

- protocolConditions: limosilactobacillus reuteri cf48-3a, 12 h, 2 µM
- Description: The drug is tested on Lactobacillus reuteri CF48-3A strain: BEI HM-102 for biotransformation. The drug concentrations were measured before and after a 12-h incubation by liquid-chromatography-coupled mass spectrometry (LC–MS)
metricName: Bacterial Biotransformation

CN(C)C(=O)Oc1cc(OC(=O)N(C)C)cc(C(O)CNC(C)(C)C)c1 (centres undefined) [BAMBUTEROL]; Compound NOT metabolized
Cc1cn([C@H]2C[C@H](N=[N+]=[N-])[C@@H](CO)O2)c(=O)[nH]c1=O [ZIDOVUDINE]; Compound NOT metabolized
CN1CCC(=C2c3ccccc3CCc3cccnc32)CC1.O=C(O)/C=C\C(=O)O.O=C(O)/C=C\C(=O)O [AZATADINE MALEATE]; Compound NOT metabolized

---

- testSummary: The drug is tested on Ruminococcus lactaris strain: ATCC29176 for biotransformation. The drug concentrations were measured before and after a 12-h incubation by liquid-chromatography-coupled mass spectrometry (LC–MS)
- protocolConditions: 2 µM
metricName: Bacterial Biotransformation

Here is how some compounds turned out for Bacterial Biotransformation.
CCN(CC)CCNC(=O)c1cc(Cl)c(N)cc1OC [METOCLOPRAMIDE]; Compound NOT metabolized
CN(C)C(=O)C(CCN1CCC(O)(c2ccc(Cl)cc2)CC1)(c1ccccc1)c1ccccc1 [LOPERAMIDE]; Compound NOT metabolized
C[N+]12CCC(CC1)C(OC(=O)C(O)(c1ccccc1)c1ccccc1)C2.[Br-] (stereo unspecified) [CLIDINIUM BROMIDE]; Compound NOT metabolized
Cc1nc(-c2ccc(OCC(C)C)c(C#N)c2)sc1C(=O)O; Compound metabolized
CC(CN(C)C)CN1c2ccccc2CCc2ccccc21.O=C(O)/C=C\C(=O)O (stereo unspecified) [TRIMIPRAMINE MALEATE]; Compound NOT metabolized
Nc1nc(N)nc(-c2cc(Cl)ccc2Cl)n1.O=C(O)/C=C\C(=O)O [IRSOGLADINE MALEATE]; Compound NOT metabolized
CC(C)(C)NC[C@H](O)COc1nsnc1N1CCOCC1.O=C(O)/C=C\C(=O)O [TIMOLOL MALEATE]; Compound NOT metabolized
CC#C[C@]1(O)CC[C@H]2[C@@H]3CCC4=CC(=O)CCC4=C3[C@@H](c3ccc(N(C)C)cc3)C[C@@]21C; Compound NOT metabolized

Request: Tell me the measured Bacterial Biotransformation of O=c1[nH]c2ccccc2n1CCCN1CCC(n2c(=O)[nH]c3cc(Cl)ccc32)CC1 , please.
Result: Compound NOT metabolized

Request: Tell me the measured Bacterial Biotransformation of CCCCCCOC(=O)/N=C(/N)c1ccc(NCc2nc3cc(C(=O)N(CCC(=O)OCC)c4ccccn4)ccc3n2C)cc1.CS(=O)(=O)O [DABIGATRAN ETEXILATE MESYLATE] , please.
Result: Compound NOT metabolized

Request: Tell me the measured Bacterial Biotransformation of CN1C[C@H](C(=O)N[C@]2(C)O[C@@]3(O)[C@@H]4CCCN4C(=O)[C@H](Cc4ccccc4)N3C2=O)C=C2c3cccc4[nH]cc(c34)C[C@H]21.CN1C[C@H](C(=O)N[C@]2(C)O[C@@]3(O)[C@@H]4CCCN4C(=O)[C@H](Cc4ccccc4)N3C2=O)C=C2c3cccc4[nH]cc(c34)C[C@H]21.O=C(O)C(O)C(O)C(=O)O [ERGOTAMINE TARTRATE] , please.
Result: Compound metabolized

Request: Tell me the measured Bacterial Biotransformation of NC12CC3CC(CC(C3)C1)C2 , please.
Result: Compound NOT metabolized

Request: Tell me the measured Bacterial Biotransformation of Fc1ccc([C@@H]2CCNC[C@H]2COc2ccc3c(c2)OCO3)cc1 , please.
Result: Compound NOT metabolized
